Reference for the values: patent US5416070A

- Test system: human peripheral blood monocytes
- test_summary: Activation of monocytes in vitro measured by production of tumor necrosis factor (ELISA)
- Assay type: cell-based
- measurement_conditions: Experiment 3, free drug in saline 0.1 μg/ml, 24 hours
Attribute: TNF Level
# value in pg/mL; strip the unit string

For orientation, consider the following solved cases.
CCCCCCCCCCCCCCCC(=O)OCC(COC(=O)C(C)NC(=O)CCC(NC(=O)C(C)NC(=O)C(C)OC1C(NC(C)=O)C(O)OC(CO)C1OC1OC(CO)C(O)C(O)C1NC(C)=O)C(N)=O)OC(=O)CCCCCCCCCCCCCCC (centres unmarked) [Compound IIB] : 250
CCCCCCCCCCCCCCCC(=O)OCC(COC(=O)CCCCCCCCCCCCCCC)NC(=O)C(C)NC(=O)CCC(NC(=O)C(C)NC(=O)C(C)OC1C(NC(C)=O)C(O)OC(CO)C1OC1OC(CO)C(O)C(O)C1NC(C)=O)C(N)=O [Compound IB, GlcNAcMurNAc-L-Ala-D-isoGln-D-Ala-NHDPG] : 180
CCCCCCCCCCCCCCCC(=O)OCC(COC(=O)CCCCCCCCCCCCCCC)NC(=O)C(C)NC(=O)CCC(NC(=O)C(C)NC(=O)C(C)OC1C(NC(C)=O)C(O)OC(CO)C1OC1OC(CO)C(O)C(O)C1NC(C)=O)C(N)=O [Compound IC, GlcNAcMurNAc-D-Ala-D-isoGln-D-Ala-NHDPG] : 280
CCCCCCCCCCCCCCCC(=O)OCC(COC(=O)CCCCCCCCCCCCCCC)NC(=O)C(C)NC(=O)CCC(NC(=O)C(C)NC(=O)C(C)OC1C(NC(C)=O)C(O)OC(CO)C1OC1OC(CO)C(O)C(O)C1NC(C)=O)C(N)=O (centres unmarked) [Compound IA] : 280

Per the records, this molecule ( CCCCCCCCCCCCCCCC(=O)OCC(COC(=O)C(C)NC(=O)CCC(NC(=O)C(C)NC(=O)C(C)OC1C(NC(C)=O)C(O)OC(CO)C1OC1OC(CO)C(O)C(O)C1NC(C)=O)C(N)=O)OC(=O)CCCCCCCCCCCCCCC (centres unmarked) [Compound IIA] ) has TNF Level equal to 1450
